Listed below: IC50 values for each entry.
Test system: Mycobacterium tuberculosis
protocol-details: Antitubercular activity against Mycobacterium tuberculosis H37Rv by Alamar blue assay
Type: functional, organism-based
Entry rule: numbers only, all in µg/mL.

Kindly state the measured IC50 obtained for COc1ccc(O)c(-c2csc(N/N=C(\C)c3ccccn3)n2)c1 with Mycobacterium tuberculosis.
6.22

Kindly state the measured IC50 obtained for C/C(=N\Nc1nc(-c2cccs2)cs1)c1cccnc1 with Mycobacterium tuberculosis.
92.2

Lab note: next compound to report on.
Kindly state the measured IC50 obtained for C/C(=N\Nc1nc(-c2cccs2)cs1)c1ccccn1 with Mycobacterium tuberculosis.
48.4

###

protocol-details: Selectivity index, ratio of CC50 for african green monkey Vero cells to IC90 for Mycobacterium tuberculosis H37Rv
Format: toxicity, cell-based
measurement-parameters: read-out: Selectivity Index
reported-endpoint: selectivity ratio

I have this compound here, COc1ccc(O)c(-c2csc(N/N=C(\C)c3ccccn3)n2)c1 , and I need its recorded selectivity ratio.
> 5.89
